Assay: in vivo
Conditions: male, ICR, mouse, in vivo, ip, 5 mg/kg
Text: Male ICR mice (age: 5–6 weeks old; body weight: 30 ± 2 g) were purchased from Samtako Co. (Osan, Gyeonggi-do, Korea), housed in plastic cages and given free access to a standard animal diet (Daejong, Seoul, Korea) and water. […] The mice were randomly divided into four groups. […] The physiological conditions of the animals were carefully monitored during the study. […]
Endpoint name: Tmax (min)
Write down the numeric answer in min and omit the unit.

I am curious: what Tmax value has been reported for COc1cc(CNC(=O)CCCC/C=C/C(C)C)ccc1O [Capsaicin] ? 10.2

I am curious: what Tmax value has been reported for CCCCC[C@H](O)CC(=O)CCc1ccc(O)c(OC)c1 [[6]-Gingerol] ? 10.2

These data points were gathered from paper PMC6017107.
